- Test system: young adult male Swiss-Webster strain albino mice
- experimental-protocol: Acute oral toxicity (ALD50)
- Type: in vivo
- assay-context: 500 mg/kg oral, suspension in 1% G.T.
endpoint-name: Mortality 24 Hrs

Q: # value lookup — system young adult male Swiss-Webster strain albino mice, readout Mortality 24 Hrs, item CCCCCCCNc1cc[n+](CCCCCCCCCCCC[n+]2ccc(NCCCCCCC)cc2)cc1 [Example 3]
Result: 0/3

Q: Entry "CCCCCCCNc1cc[n+](CCCCCCCCCC[n+]2ccc(NCCCCCCC)cc2)cc1" , system young adult male Swiss-Webster strain albino mice: what Mortality 24 Hrs was measured?
Result: 0/3

Q: Which measured Mortality 24 Hrs belongs to "CCCCCCCCNc1cc[n+](CCCCCC[n+]2ccc(NCCCCCCCC)cc2)cc1" , tested on young adult male Swiss-Webster strain albino mice?
Result: 0/3

Q: Enter reported Mortality 24 Hrs observed with young adult male Swiss-Webster strain albino mice for CCCCCCCNc1cc[n+](CCCCCCCCCCCC[n+]2ccc(NCCCCCCC)cc2)cc1 [Example 4]
Result: 0/3

Q: Which Mortality 24 Hrs is reported with young adult male Swiss-Webster strain albino mice for this entry: "CCCCCCCCNc1cc[n+](CCCCCCCC[n+]2ccc(NCCCCCCCC)cc2)cc1" ?
Result: 0/3

Q: Kindly state the measured Mortality 24 Hrs obtained for CCCCC(CC)CNc1cc[n+](CCCCCCCCCCCC[n+]2ccc(NCC(CC)CCCC)cc2)cc1 (stereo not shown) [Example 41C] with young adult male Swiss-Webster strain albino mice.
Result: 0/3

Q: // fetch young adult male Swiss-Webster strain albino mice Mortality 24 Hrs for CCCCCCCCCNc1cc[n+](CCCCCCCC[n+]2ccc(NCCCCCCCCC)cc2)cc1 [Example 29C]
Result: 0/3

====

- System: E. coli 100/B22
- experimental-protocol: In vitro antibacterial activity, MIC (modified Autotiter method)
- Type: cell-based, Escherichia coli
- assay-context: Escherichia coli, 100/B22, 20 h, 18-20 hours at 37° C.; read-out: MIC E. coli 100/B22
- Method: The antibacterial and antifungal activity of representative examples of the compounds of Formula I was determined using a modification of the Autotiter method described by Goss, et al. Applied Microbiology 16 (9) 1,414-1,416 (1968) in which a 1,000 mcg./ml. solution of the test compound is prepared. To the first cup of the Autotray is added 0.1 ml. of the test solution. […]
Kindly supply the reported MIC values for the records listed here.
Return type: number; implicit unit µg/mL.

Q: Could you tell me which MIC is on file for Fc1ccc(Nc2cc[n+](CCCCCC[n+]3ccc(Nc4ccc(F)cc4)cc3)cc2)cc1 [Example 83B] ?
Result: 15.6

Q: Would you mind telling me what MIC value was observed for Clc1ccc(Nc2cc[n+](CCCCCC[n+]3ccc(Nc4ccc(Cl)cc4)cc3)cc2)cc1 [Example 77B] ?
Result: 15.6

Q: Quick one: MIC for "CCCCCCNc1cc[n+](CCCCCCCCC[n+]2ccc(NCCCCCC)cc2)cc1" ?
Result: 1.95

Q: Query: MIC; subject: "CCCCCCCCNc1cc[n+](CCCCCC[n+]2ccc(NCCCCCCCC)cc2)cc1"
Result: 1.95

Q: Would you kindly share the measured MIC for "CCCCCCCCCNc1cc[n+](CCCCCC[n+]2ccc(NCCCCCCCCC)cc2)cc1" ?
Result: 1.95

Q: Which MIC value is on record for "c1c[n+](CCCCCCCCC[n+]2ccc(NC3CCCCC3)cc2)ccc1NC1CCCCC1" ?
Result: 31.3

Q: I am curious: what MIC value has been reported for "CCCCCCCNc1cc[n+](CCCCCCC[n+]2ccc(NCCCCCCC)cc2)cc1" ?
Result: 1.95

Sourced from patent US4206215A
